Target: GtfE (Amycolatopsis orientalis)
Construct: made in house; host or cells: Escherichia coli
Sequence (Q9AFC6 whole entry): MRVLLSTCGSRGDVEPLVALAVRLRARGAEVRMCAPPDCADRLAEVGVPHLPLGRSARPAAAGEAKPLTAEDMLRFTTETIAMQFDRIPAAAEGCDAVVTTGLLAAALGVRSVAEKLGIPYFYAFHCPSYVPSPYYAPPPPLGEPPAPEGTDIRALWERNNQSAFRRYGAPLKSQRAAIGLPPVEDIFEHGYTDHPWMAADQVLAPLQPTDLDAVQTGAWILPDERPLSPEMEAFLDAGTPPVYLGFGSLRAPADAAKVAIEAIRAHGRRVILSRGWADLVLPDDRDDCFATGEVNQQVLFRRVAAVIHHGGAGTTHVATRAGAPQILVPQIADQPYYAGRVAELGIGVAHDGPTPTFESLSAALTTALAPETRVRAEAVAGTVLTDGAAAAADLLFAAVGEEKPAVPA
Assay: GtfE steady-state kinetics and transfer of NDP-glucose derivatives to heptapeptide aglycone
Format: biochemical
Details: acceptor vancomycin aglycone 1 mM; pH 9
Assign class by kcat: not lower than 0.03 s⁻¹ means YES; lower than 0.03 s⁻¹ means NO.

Asked: Please tell me: is the molecule Cc1cn([C@H]2C[C@H](O)[C@@H](COP(=O)(O)OP(=O)(O)O[C@H]3O[C@H](CO)[C@@H](O)[C@H](O)[C@H]3O)O2)c(=O)[nH]c1=O [TDP-glucose, reference compound] at or over 0.03 s⁻¹ in terms of kcat?
Given back: YES

Asked: // inclusive: kcat at least 0.03 s⁻¹? input: NC1C(OP(=O)(O)OP(=O)(O)OCC2OC(n3ccc(=O)[nH]c3=O)C(O)C2O)OC(CO)C(O)C1O (stereo not drawn) [UDP-2-NH2-glucose]
Given back: YES

Asked: Given the entry O=c1ccn([C@@H]2O[C@H](COP(=O)(O)OP(=O)(O)O[C@H]3O[C@H](CCl)[C@@H](O)[C@H](O)[C@H]3O)[C@@H](O)[C@H]2O)c(=O)[nH]1 [UDP-6-Cl-glucose, UDP-6-chloro-glucose] , answer whether its kcat meets or surpasses 0.03 s⁻¹.
Given back: NO

Asked: Could you verify whether the entry Cc1cn(C2CC(O)C(COP(=O)(O)OP(=O)(O)OC3OC(CO)C(O)C(N)C3O)O2)c(=O)[nH]c1=O (stereo not drawn) [TDP-3-NH2-glucose] shows kcat of no less than 0.03 s⁻¹?
Given back: YES

Asked: Determine whether this molecule has kcat no lower than 0.03 s⁻¹: NC[C@H]1O[C@H](OP(=O)(O)OP(=O)(O)OC[C@H]2O[C@@H](n3ccc(=O)[nH]c3=O)[C@H](O)[C@@H]2O)[C@H](O)[C@@H](O)[C@@H]1O [UDP-6-NH2-glucose]
Given back: NO

Asked: Could you tell me if the measured kcat of Cc1cn([C@H]2C[C@H](O)[C@@H](COP(=O)(O)OP(=O)(O)O[C@H]3O[C@H](CO)[C@@H](N)[C@H](O)[C@H]3O)O2)c(=O)[nH]c1=O [TDP-4-NH2-glucose] reaches 0.03 s⁻¹ or more?
Given back: NO
